# MEASURED ON: mMC1R (Mus musculus, UniProt Q01727)
# Sequence (Q01727 whole entry): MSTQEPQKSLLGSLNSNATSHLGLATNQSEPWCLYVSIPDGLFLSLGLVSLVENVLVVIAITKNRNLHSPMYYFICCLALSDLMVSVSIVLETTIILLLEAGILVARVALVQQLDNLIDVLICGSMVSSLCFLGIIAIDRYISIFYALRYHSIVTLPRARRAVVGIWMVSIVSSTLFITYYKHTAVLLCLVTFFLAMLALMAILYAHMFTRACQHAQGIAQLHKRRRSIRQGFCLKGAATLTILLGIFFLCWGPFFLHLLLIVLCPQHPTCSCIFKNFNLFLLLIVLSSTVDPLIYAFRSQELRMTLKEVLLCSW
# TEST: CRE/β-galactosidase reporter gene bioassay, agonist activity at mMC1R
# Format: cell-based
# EXPERIMENTAL CONTEXT: fold difference in EC50 vs peptide 1; negative prefix = more potent than 1
Square brackets hold non-standard residues; d marks the D form. Peptide text beside a SMILES is read from it. Bip = N[C@@H](Cc1ccc(-c2ccccc2)cc1)C(=O)O; dBip = N[C@H](Cc1ccc(-c2ccccc2)cc1)C(=O)O; d1Nal = N[C@H](Cc1cccc2ccccc12)C(=O)O; Bta = N[C@@H](Cc1csc2ccccc12)C(=O)O
Let's look at some molecules and their measured mMC1R Fold Diff.

[
  {
    "MOLECULE": "CC(=O)N[C@@H](Cc1ccccc1)C(=O)N[C@H](Cc1cccc2ccccc12)C(=O)N[C@@H](CCCNC(=N)N)C(=O)N[C@@H](Cc1c[nH]c2ccccc12)C(N)=O [Peptide 21, Ac-Phe-DNal(1’)-Arg-Trp-NH2] (Ac-F[d1Nal]RW-NH2)",
    "mMC1R Fold Diff": 28
  },
  {
    "MOLECULE": "CC(=O)N[C@@H](Cc1c[nH]cn1)C(=O)N[C@H](Cc1ccc(-c2ccccc2)cc1)C(=O)N[C@@H](CCCNC(=N)N)C(=O)N[C@@H](Cc1csc2ccccc12)C(N)=O [Peptide 34, Ac-His-DBip-Arg-3Bal-NH2] (Ac-H[dBip]R[Bta]-NH2)",
    "mMC1R Fold Diff": "−16"
  },
  {
    "MOLECULE": "CC(=O)N[C@@H](Cc1c[nH]c2ccccc12)C(=O)N[C@H](Cc1ccc(-c2ccccc2)cc1)C(=O)N[C@@H](CCCNC(=N)N)C(=O)N[C@@H](Cc1c[nH]c2ccccc12)C(N)=O [Peptide 18, Ac-Trp-DBip-Arg-Trp-NH2] (Ac-W[dBip]RW-NH2)",
    "mMC1R Fold Diff": 13
  },
  {
    "MOLECULE": "CC(=O)N[C@@H](Cc1c[nH]cn1)C(=O)N[C@H](Cc1ccc(-c2ccccc2)cc1)C(=O)N[C@@H](CCCNC(=N)N)C(=O)N[C@@H](Cc1ccc(-c2ccccc2)cc1)C(N)=O [Peptide 33, Ac-His-DBip-Arg-Bip-NH2] (Ac-H[dBip]R[Bip]-NH2)",
    "mMC1R Fold Diff": "−9"
  }
]
